What IC50 was measured for each of the following?
# System: KRAS G12C-dependent Ba/F3 cells
# method: Ba/F3 proliferation assay, KRAS G12C
# Type: cell-based
# settings: Mus musculus, BaF3, 72 h, AlamarBlue
# Protocol: Plasmids containing KRASG12 mutants (i.e. […], G12C, G12V) are obtained from GeneScript. To generate KRASG12-dependent Ba/F3 models, Ba/F3 cells are transduced with retroviruses containing vectors that harbor KRASG12 isoforms. […] Compounds are added using an Access Labcyte Workstation with a Labcyte Echo 550 or 555 accoustic dispenser. […] AlamarBlue™ (ThermoFisher), a viability stain, is added and fluorescence measured in the PerkinElmer Envision HTS Multilabel Reader. […]
Answers are plain numbers, in µM.

Some solved entries appear below for comparison.
# moleculeSmiles, IC50 / µM
data = [
    ("C[C@H](Oc1cc(Cl)nc(-c2onc3c2CCC[C@@]32CCCc3sc(N)c(C#N)c32)n1)[C@@H]1CCCN1C", 0.077),
    ("C[C@H](Oc1cc(-c2ccn(C3COC3)n2)nc(-c2noc3c2CCC[C@@]32CCCc3sc(N)c(C#N)c32)n1)[C@@H]1CCCN1C", 0.013),
]

Please examine the following record next.
input: State the measured IC50 (KRAS G12C-dependent Ba/F3 cells) of `C[C@H](Oc1cc(-n2cc3ccn(C[C@H]4CCOC4)c(=O)c3n2)nc(-c2noc3c2CCC[C@@]32CCCc3sc(N)c(C#N)c32)n1)[C@@H]1CCCN1C`
output: 0.011

---

# System: KRAS G12V-dependent Ba/F3 cells
# method: Ba/F3 proliferation assay, KRAS G12V;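 also: proliferation IC50 in KRAS G12V-dependent Ba/F3 cells read by AlamarBlue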
# Format: cell-based
# settings: Mus musculus, BaF3, 72 h, AlamarBlue
Binary call on IC50 with cut-off 30 nM: strictly below means y, and equality or higher means n.

Take a look at these entries with their results.
# compound, category
measured = [
    ("C[C@H](Oc1cc(-n2cc3c(n2)CNC3)nc(-c2noc3c2CCC[C@@]32CCCc3sc(N)c(C#N)c32)n1)[C@@H]1CCCN1C [II-168]", "y"),
    ("C[C@H](Oc1cc(N2CCN(C)C3(CC3)C2)nc(-c2noc3c2CCC[C@@]32CCCc3sc(N)c(C#N)c32)n1)[C@@H]1CCCN1C [II-171]", "n"),
    ("Cc1cn(C)nc1-c1cc(O[C@@H](C)[C@@H]2CCCN2C)nc(-c2noc3c2CCC[C@@]32CCCc3sc(N)c(C#N)c32)n1 [II-68]", "y"),
]

input: Item C[C@H](Oc1cc(N2CCNC[C@]23CCOC3)nc(-c2noc3c2CCC[C@@]32CCCc3sc(N)c(C#N)c32)n1)[C@@H]1CCCN1C [II-50] : IC50 beneath 30 nM, strictly?
output: n

input: Item C[C@H](Oc1cc(N2CCCC2=O)nc(-c2noc3c2CCC[C@@]32CCCc3sc(N)c(C#N)c32)n1)[C@@H]1CCCN1C [II-73] : IC50 beneath 30 nM, strictly?
output: y

---

What pIC50 was measured for each of the following?
# Test system: KRAS G12V-dependent Ba/F3 cells
# method: Ba/F3 proliferation assay, KRAS G12V;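 also: proliferation IC50 in KRAS G12V-dependent Ba/F3 cells read by AlamarBlue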
# Type: cell-based
# settings: Mus musculus, BaF3, 72 h, AlamarBlue
Numbers only, as −log10 of the molar value.

Please state, for each entry, its recorded pIC50.
1. C[C@H](Oc1cc(-n2ccnc2)nc(-c2onc3c2CCC[C@@]32CCCc3sc(N)c(C#N)c32)n1)[C@@H]1CCCN1C [I-20]
2. C[C@H]1CN(C)CCCN1c1cc(N2CC[C@H](N(C)C)C2)nc(-c2noc3c2CCC[C@@]32CCCc3sc(N)c(C#N)c32)n1 [II-16]
3. C[C@H](Oc1cc(N2C[C@H](C)N[C@@H](C)C2)nc(-c2noc3c2CCC[C@@]32CCCc3sc(N)c(C#N)c32)n1)[C@@H]1CCCN1C [II-56]
4. C[C@H](Oc1cc(-n2ccc(C(=O)NC3COC3)n2)nc(-c2noc3c2CCC[C@@]32CCCc3sc(N)c(C#N)c32)n1)[C@@H]1CCCN1C [II-25]
5. C[C@H](Oc1cc(-n2ccsc2=O)nc(-c2noc3c2CCC[C@@]32CCCc3sc(N)c(C#N)c32)n1)[C@@H]1CCCN1C [II-135]

output:
[8.00, 5.78, 6.78, 8.40, 8.40]

These measurements were taken from patent US20240174690A1.
